system: SK-MEL-2; experiment: Cytotoxicity against human SK-MEL-2 cells after 48 hrs by sulforhodamine B assay; format: functional; settings: SK-MEL-2, 48 h
Assay Readout: GI50

Molecule Smiles | Assay Value
COc1ccc(C(=O)c2cc(OC)c(O)c(OC)c2)cc1OC | 5.29 µM
COc1ccc(C(=O)c2cc(OC)c(OC)c(OC)c2)c(OC)c1O | 0.0266 µM
COc1cc(C(=O)c2ccc(OC)c(O)c2OC)cc(OC)c1O | 100 µM
COc1cc(C(=O)c2ccc3c(c2)oc(=O)n3S(C)(=O)=O)cc(OC)c1OC | 5.11 µM

* * *

tested on: A549; test: Cytotoxicity against human A549/ATCC cells after 48 hrs by sulforhodamine B assay; format: functional; details: A549, 48 h
Assay Readout: GI50

Molecule Smiles | Tested On | Assay Value
COc1cc(C(=O)c2ccc(OC)c(O)c2OC)cc(OC)c1O | A549 | 3.47 µM
COc1cc(C(=O)c2ccc3c(c2)oc(=O)n3S(C)(=O)=O)cc(OC)c1OC | A549 | 4.68 µM
COc1ccc(C(=O)c2cc(OC)c(O)c(OC)c2)cc1OC | A549 | 59.1 µM
COc1ccc(C(=O)c2cc(OC)c(OC)c(OC)c2)c(OC)c1O | A549 | 0.0413 µM

Data credit: ChEMBL document CHEMBL1833921
